Source: patent US10328003B2

quantity_kind: Solubility of Escalol S at 25° C. (%)

compound	value_measured
Cc1ccccc1C(=O)OC1CCCCC1 [Cyclohexyl 2-Toluate]	37
Cc1cccc(C(=O)OCC2CCCCC2)c1 [Cyclohexylmethanol 3-Toluate]	30
Cc1cccc(C(=O)OC2CCCCC2)c1 [Cyclohexyl 3-Toluate]	35
Cc1cccc(C(=O)OC2CCCC2)c1 [Cyclopentyl 3-Toluate]	34
Cc1ccc(C(=O)OC2CCCCC2)cc1 [Cyclohexyl 4-Toluate]	36
